// provenance: PubChem BioAssay (NCI)

This listing pairs compounds with measured growth.
Test system: OVCAR-4 ovarian
Assay summary: NCI-60 one-dose screen, 48 h (100 = growth as untreated, 0 = no growth, -100 = all killed)
Conditions: 10 µM unless noted
About 83,000 compounds went through this panel and 20% of them were active in at least one assay; those are over-represented in the sample as a whole.
Recorded metric: growth (%)

- Item smiles: "COc1ccc(NC(=O)Nc2ccc(-c3ccc(OC)c(OC)c3)nc2C)cc1"
  U: "%"
  Measured: 29.5
- Item smiles: "CCCCOc1nc2ccc(Cl)cc2cc1/C=C/C(=O)/C=C/c1ccc(OC)cc1"
  U: "%"
  Measured: 103
- Item smiles: "CC(=O)n1cc(/C=C2\\N=C(c3ccc(Cl)cc3)N(c3ccc(S(=O)(=O)Nc4nccs4)cc3)C2=O)c2ccccc21"
  U: "%"
  Measured: 73.3
- Item smiles: "O=C(Nc1cccc([N+](=O)[O-])c1)c1ccc2ccccc2c1O"
  U: "%"
  Measured: 44.5
- Item smiles: "CN1CCN(CC(=O)N(C)c2ccc(N=C(c3ccccc3)c3c(O)[nH]c4ccc(C#N)cc34)cc2)CC1"
  U: "%"
  Measured: 48
